assay: Host cell toxicity, trypan blue exclusion method; format: cell-based, human; details: human, THP1 (ATCC TIB202) monocyte leukemia cells
Readout Type: CC50 at 24 h (µg/mL)
Please state the figure in µg/mL; there is no need to write the unit.

C=C1C(=O)OC2CC3(C)OC3CCC3=CC(OC3=O)C12 (stereo not drawn) [deoxymikanolide] ... 79.4
C[C@H]1C(=O)O[C@H]2C[C@]3(C)O[C@H]3[C@@H]3O[C@@H]3C3=C[C@@H](OC3=O)[C@@H]21 [dihydromikanolide] ... 13

Entry C=C1C(=O)OC2CC3(C)OC3CC(OC(C)=O)C3=CC(OC3=O)C12 (stereo not drawn) [scandenolide] : reported CC50 at 24 h = ? 864

---

assay: Host cell toxicity, trypan blue exclusion method; assay type: cell-based, human; details: human, THP1 cells
Readout Type: CC50 at 24 h (µg/mL)
Please state the figure in µg/mL; there is no need to write the unit.

Entry C=C1C(=O)OC2CC3(C)OC3C3OC3C3=CC(OC3=O)C12 (stereo not shown) [mikanolide] : reported CC50 at 24 h = ? 22.3

---

Readings of log10 IC50 for the listed molecules
system: T. cruzi bloodstream trypomastigotes; test: Trypanocidal effect on bloodstream trypomastigotes, live parasite count in Neubauer chamber; type: cell-based; conditions: Trypanosoma cruzi; 24 h, remaining live parasites counted
A difference of one corresponds to tenfold IC50; all values are log10 with IC50 in µg/mL.

Known results for molecules:
O=C(Cn1ccnc1[N+](=O)[O-])NCc1ccccc1 [benznidazole, reference compound] ... 1.02
C=C1C(=O)OC2CC3(C)OC3CC(OC(C)=O)C3=CC(OC3=O)C12 (centres unmarked) [scandenolide] ... 1.84
C=C1C(=O)OC2CC3(C)OC3CCC3=CC(OC3=O)C12 (centres unmarked) [deoxymikanolide] ... 0.18
C[C@H]1C(=O)O[C@H]2C[C@]3(C)O[C@H]3[C@@H]3O[C@@H]3C3=C[C@@H](OC3=O)[C@@H]21 [dihydromikanolide] ... -0.52

What is its log10 IC50 for T. cruzi bloodstream trypomastigotes? Entry: C=C1C(=O)OC2CC3(C)OC3C3OC3C3=CC(OC3=O)C12 (centres unmarked) [mikanolide] 0.32
